Tested on: Aconitineinduced arrhythmia, rats
METHOD NOTES: animal or person
Type: in vivo, rats (Sprague Dawley)
DETAILS: Rattus norvegicus, po, read-out: R.M.A. (relative maximum activity)
Hi there, I'd appreciate the recorded Emax for every entry that follows.
Answers are plain numbers, in %.

// input: 3 molecules below; output: Emax for each
1. Cc1nc(Cc2ccccc2)c2c(c1OCC(O)CNC(C)C)COC2.Cl (stereo not drawn) [Example 69, hydrochloride]
2. CCC(C)NCCCCOc1c(C)nc(Cc2ccccc2)c2c1COC2 (stereo not drawn) [Example 60]
3. COC(=O)c1c(Cc2ccccc2)nc(C)c(OCCCN(C)C)c1C(=O)OC [Example 18]

Response line:
1. 164
2. 185
3. 222

// input: 2 molecules below; output: Emax for each
1. CCc1nc(Cc2ccccc2)c2c(c1OCCCN(C)C)COC2 [Example 29]
2. CCCN(CCC)CCCOc1c(C)nc(Cc2ccccc2)c2c1COC2 [Example 36]

Response line:
204
165

// input: 3 molecules below; output: Emax for each
1. Cc1nc(Cc2ccccc2)c2c(c1OCCCCCNC(C)C)COC2 [Example 52]
2. Cc1nc(Cc2ccccc2)c2c(c1OCCN(C)C)COC2.Cl.Cl [Example 1, bis-hydrochloride]
3. Cc1nc(Cc2ccccc2)c2c(c1OCCCCN(C(C)C)C(C)C)COC2 [Example 64]

Response line:
1: 169; 2: 138; 3: 238

Prompt line: State the recorded Emax for this entry: Cc1nc(Cc2ccccc2)c2c(c1OCCCCNCCC(C)(C)O)COC2 [Example 68]
Response line: 181

###

METHOD NOTES: Acute toxicity, intraperitoneal administration
DETAILS: mouse, in vivo, ip, female Swiss mice, within 24 hours, read-out: Acute toxicity LD 50
Hi there, I'd appreciate the recorded LD50 at 24 h for every entry that follows.
Answers are plain numbers, in mg/kg.

// input: 7 molecules below; output: LD50 at 24 h for each
1. Cc1nc(Cc2ccccc2)c2c(c1OCCCCCNC(C)C)COC2
2. CCc1nc(Cc2ccccc2)c2c(c1OCCCN(C)C)COC2
3. CCCN(CCC)CCCOc1c(C)nc(Cc2ccccc2)c2c1COC2
4. CCC(C)NCCCCOc1c(C)nc(Cc2ccccc2)c2c1COC2 (stereo not drawn)
5. Cc1nc(Cc2ccccc2)c2c(c1OCC(O)CNC(C)C)COC2.Cl (stereo not drawn)
6. CCOC(=O)c1c(Cc2ccccc2)nc(C)c(OCCCN(C)C)c1C(=O)OCC
7. COC(=O)c1c(Cc2ccccc2)nc(C)c(OCCCN(C)C)c1C(=O)OC

Response line:
[104, 104, 180, 101, 107, 137, 170]

###

System: Aconitineinduced arrhythmia, rats
METHOD NOTES: animal or person
Format: in vivo, rats (Sprague Dawley)
DETAILS: oral, rats; highest nontoxic dose
MEASURED ATTRIBUTE: Maximum action: Dose (highest nontoxic dose) (mg/kg)
Give bare numbers, in mg/kg.

Answered examples (6):
{"MOLECULE": "Cc1nc(Cc2ccccc2)c2c(c1OCCCCNC(C)C)COC2", "QUANTITATIVE READOUT": 100}
{"MOLECULE": "Cc1nc(Cc2ccccc2)c2c(c1OCCCNC(C)C)COC2", "QUANTITATIVE READOUT": 215}
{"MOLECULE": "CN(C)CCCOc1c(Cc2ccccc2)nc(Cc2ccccc2)c2c1COC2", "QUANTITATIVE READOUT": 215}
{"MOLECULE": "CCC(C)NCCCCOc1c(C)nc(Cc2ccccc2)c2c1COC2 (stereo not drawn)", "QUANTITATIVE READOUT": 100}
{"MOLECULE": "CCOC(=O)c1c(Cc2ccccc2)nc(C)c(OCCCN(C)C)c1C(=O)OCC", "QUANTITATIVE READOUT": 100}
{"MOLECULE": "Cc1nc(Cc2ccccc2)c2c(c1OCC(O)CNC(C)C)COC2.Cl (stereo not drawn)", "QUANTITATIVE READOUT": 464}

// input: 3 molecules below; output: Maximum action: Dose (highest nontoxic dose) for each
1. Cc1nc(Cc2ccccc2)c2c(c1OCCCN1CCNCC1)COC2
2. CCN(CC)CCC(C)CCOc1c(C)nc(Cc2ccccc2)c2c1COC2 (stereo not drawn)
3. Cc1nc(Cc2ccccc2)c2c(c1OCCCCCNC(C)C)COC2

Response line:
46.4
100
215

Data credit: patent US4206117A
